Entry source: patent US20060014801A1

- methodSummary: Pharmacokinetics of MNP in the rat (plasma, LC/MS/MS)
- Assay type: in vivo, male Sprague-Dawley rats
- protocolConditions: male, Sprague-Dawley, plasma, po, 50 mg/kg p.o., approximate value
parameterMeasured: Tmax

// query Identify Tmax associated with the compound `C[C@@H]1CC=NN1C(=O)c1cccnc1`
// result ~10 min

====

- methodSummary: Pharmacokinetics of MNP in the rat (plasma, LC/MS/MS)
- Type: in vivo, male Sprague-Dawley rats
- protocolConditions: male, Sprague-Dawley, plasma, oral, 50 mg/kg p.o. vs 5 mg/kg i.v., effects of saturation and accumulation unknown, read-out: ˜Bioavailability (Foral; %)
parameterMeasured: bioavailability

// query Identify bioavailability associated with the compound `C[C@@H]1CC=NN1C(=O)c1cccnc1`
// result ~119%

====

- methodSummary: Pharmacokinetics of MNP in the rat (plasma, LC/MS/MS)
- Assay type: in vivo, male Sprague-Dawley rats
- protocolConditions: male, Sprague-Dawley, plasma, 5 mg/kg intravenous dose, read-out: Terminal half-life
parameterMeasured: half-life

// query Identify half-life associated with the compound C[C@@H]1CC=NN1C(=O)c1cccnc1 [MNP]
// result ~30 min

====

- methodSummary: Pharmacokinetics of MNP in the rat (plasma, LC/MS/MS)
- Type: in vivo, male Sprague-Dawley rats
- protocolConditions: male, Sprague-Dawley, plasma, oral, 200 mg/kg p.o., 180 min, mean ± s.e.m., 3 rats, read-out: MNP plasma levels
parameterMeasured: concentration at 180 min
Remember to quote the unit after the number.

// query Identify concentration at 180 min associated with the compound `C[C@@H]1CC=NN1C(=O)c1cccnc1`
// result 5700 ng/mL

====

- methodSummary: Pharmacokinetics of MNP in the rat (plasma, LC/MS/MS)
- Type: in vivo, male Sprague-Dawley rats
- protocolConditions: male, Sprague-Dawley, plasma, iv, 5 mg/kg i.v., approximate value
parameterMeasured: AUC

// query Identify AUC associated with the compound `C[C@@H]1CC=NN1C(=O)c1cccnc1`
// result ~4220 ng·h/mL

====

- methodSummary: Pharmacokinetics of MNP in the rat (plasma, LC/MS/MS)
- Assay type: in vivo, male Sprague-Dawley rats
- protocolConditions: male, Sprague-Dawley, plasma, oral, 200 mg/kg p.o., 240 min, mean ± s.e.m., 3 rats, read-out: MNP plasma levels
parameterMeasured: concentration at 240 min (ng/mL)
Write the value in ng/mL as a bare number.

// query Identify concentration at 240 min associated with the compound `C[C@@H]1CC=NN1C(=O)c1cccnc1`
// result 5840

====

- methodSummary: Pharmacokinetics of MNP in the rat (plasma, LC/MS/MS)
- Type: in vivo, male Sprague-Dawley rats
- protocolConditions: male, Sprague-Dawley, plasma, oral, 50 mg/kg p.o., 5 min, mean ± s.e.m., 3 rats, read-out: MNP plasma levels
parameterMeasured: concentration at 5 min (ng/mL)
Write the value in ng/mL as a bare number.

// query Identify concentration at 5 min associated with the compound C[C@@H]1CC=NN1C(=O)c1cccnc1 [MNP]
// result 16000

====

- methodSummary: Pharmacokinetics of MNP in the rat (plasma, LC/MS/MS)
- Type: in vivo, male Sprague-Dawley rats
- protocolConditions: male, Sprague-Dawley, plasma, oral, 50 mg/kg p.o., 720 min, mean ± s.e.m., 3 rats, read-out: MNP plasma levels
parameterMeasured: concentration at 720 min (ng/mL)
Write the value in ng/mL as a bare number.

// query Identify concentration at 720 min associated with the compound `C[C@@H]1CC=NN1C(=O)c1cccnc1`
// result 536
